Biological target: S-methyl-5'-thioadenosine phosphorylase (Homo sapiens, UniProt Q13126)
Sequence (Q13126 whole entry): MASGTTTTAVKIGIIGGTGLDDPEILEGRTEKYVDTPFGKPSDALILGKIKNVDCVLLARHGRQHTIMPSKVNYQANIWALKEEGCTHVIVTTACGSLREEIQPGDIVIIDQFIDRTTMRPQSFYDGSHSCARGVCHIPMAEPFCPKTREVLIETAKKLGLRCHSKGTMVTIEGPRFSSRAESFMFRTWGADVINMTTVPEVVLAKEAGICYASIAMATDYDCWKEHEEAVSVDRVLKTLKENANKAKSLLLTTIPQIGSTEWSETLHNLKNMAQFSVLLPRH
Experiment: Inhibition of human MTAP as equilibrium dissociation constant
pKi: −log10 of the molar value.
Measurement type: pKi

* NC1NC=Nc2c(CN3CC(O)C(CSc4ccccc4)C3)c[nH]c21 (stereo unspecified) | 9.77
* NC1N=CNc2c(CN3CC(O)C(CSc4ccncc4)C3)c[nH]c21 (stereo unspecified) | 9.80
* NC1NC=Nc2c(CN3CC(O)C(CSc4ccc(F)cc4)C3)c[nH]c21 (stereo unspecified) | 9.80
* NC1N=CNc2c(CN3CC(O)C(CSc4ccc(Cl)cc4)C3)c[nH]c21 (stereo unspecified) | 11.00
* CCCC1CN(Cc2c[nH]c3c2N=CNC3N)CC1O (stereo unspecified) | 8.52
* CC(C)SCC1CN(Cc2c[nH]c3c2NC=NC3N)CC1O (stereo unspecified) | 9.59
* COCC1CN(Cc2c[nH]c3c2N=CNC3N)CC1O (stereo unspecified) | 8.10
* CCCSCC1CN(Cc2c[nH]c3c2NC=NC3N)CC1O (stereo unspecified) | 9.92
* CCCCSCC1CN(Cc2c[nH]c3c2N=CNC3N)CC1O (stereo unspecified) | 9.96
* NC1N=CNc2c(CN3CC(O)C(COCc4ccccc4)C3)c[nH]c21 (stereo unspecified) | 7.38
* NC1NC=Nc2c(CN3CC(O)C(CSc4cccc(Cl)c4)C3)c[nH]c21 (stereo unspecified) | 9.57

###

The following compounds are listed with their measured Ki values.
Biological target: S-methyl-5'-thioadenosine phosphorylase (Homo sapiens)
Sequence (Q13126 whole entry): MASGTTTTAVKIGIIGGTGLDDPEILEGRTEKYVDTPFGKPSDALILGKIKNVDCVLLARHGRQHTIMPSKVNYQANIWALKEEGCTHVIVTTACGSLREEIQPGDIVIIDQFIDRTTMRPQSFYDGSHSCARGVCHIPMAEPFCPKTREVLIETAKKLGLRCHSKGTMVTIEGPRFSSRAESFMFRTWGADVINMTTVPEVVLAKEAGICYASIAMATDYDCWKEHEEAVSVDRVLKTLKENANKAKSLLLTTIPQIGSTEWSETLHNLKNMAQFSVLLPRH
Assay: Inhibition of human MTAP as equilibrium dissociation constant
Measurement type: Ki (pM)

• CSCC1CN(Cc2c[nH]c3c(N)ncnc23)CC1O (centres undefined) = 90
• NC1NC=Nc2c(CN3CC(O)C(CSC4CCCCC4)C3)c[nH]c21 (centres undefined) = 370
• Nc1[nH]cnc2c(CN3CC(O)C(CSCc4ccccc4)C3)cnc1-2 (centres undefined) = 700
• CCSCC1CN(Cc2c[nH]c3c2N=CNC3N)CC1O (centres undefined) = 34

###

Target: S-methyl-5'-thioadenosine phosphorylase (Homo sapiens)
Sequence (Q13126 whole entry): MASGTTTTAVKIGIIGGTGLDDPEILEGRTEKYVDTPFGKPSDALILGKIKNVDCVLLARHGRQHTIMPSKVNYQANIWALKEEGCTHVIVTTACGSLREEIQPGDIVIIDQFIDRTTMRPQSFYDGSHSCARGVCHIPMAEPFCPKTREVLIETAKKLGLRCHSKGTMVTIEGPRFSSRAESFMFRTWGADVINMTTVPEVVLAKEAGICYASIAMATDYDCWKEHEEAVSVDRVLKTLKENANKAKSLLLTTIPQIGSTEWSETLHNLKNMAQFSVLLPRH
Assay: Inhibition of human MTAP as initial dissociation constant
pKi: −log10 of the molar value.
Would you please tag the item label 1 when its pKi is 9 or above, and label 0 when it is below?

• CCCC1CN(Cc2c[nH]c3c2N=CNC3N)CC1O (stereo unspecified) = label 0
• NC1NC=Nc2c(CN3CC(O)C(CSc4cccc(Cl)c4)C3)c[nH]c21 (stereo unspecified) = label 0
• CCCCSCC1CN(Cc2c[nH]c3c2N=CNC3N)CC1O (stereo unspecified) = label 1

Attribution: ChEMBL document CHEMBL1140320
